- TEST METHOD NOTES: chemical genetic growth profiling, strain panel (AID 1159580);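 note: tested at 20 µM; growth read once vehicle control cultures reached saturation at 30 °C; 1 = growth at the plate median or of vehicle wells; lower values mean less growth of the strain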
- MEASUREMENT CONDITIONS: S. cerevisiae deletion strains, growth OD, locus YDR502C, strain sam2, active compounds read low
In all, about 5,500 compounds went through this assay and about 2,000 (36%) were called active. About 18% were inconclusive and are not listed. The list shows a part of the results.
Provide the recorded normalized growth for the entries that follow.
Please reply with the value in numeric form only.

-- ask Complete the entry with normalized growth for "CNC(=O)Oc1ccccc1OC(C)C"
-- reply 1

-- ask Complete the entry with normalized growth for "CON"
-- reply 0.999

-- ask Complete the entry with normalized growth for "Cn1c(=O)[nH]c2ncn(C)c2c1=O"
-- reply 0.993

-- ask Complete the entry with normalized growth for "CN1CCC[C@H]1c1cccnc1"
-- reply 1

-- ask Complete the entry with normalized growth for "Cn1c(=O)c2c(ncn2CCCl)n(C)c1=O"
-- reply 1.02

-- ask Complete the entry with normalized growth for O=C(c1ccccc1)c1ccc2n1CCC2C(=O)O (configuration not stated)
-- reply 0.987

-- ask Complete the entry with normalized growth for "O=C(CCc1ccc(O)cc1)c1c(O)cc(O)cc1O"
-- reply 0.994

-- ask Complete the entry with normalized growth for "Cn1c(=O)c2c(ncn2CCO)n(C)c1=O"
-- reply 0.978

-- ask Complete the entry with normalized growth for "Cc1c(NC(C)C)c(=O)n(-c2ccccc2)n1C"
-- reply 1

-- ask Complete the entry with normalized growth for "COc1cc(O)c2c(c1)C(=O)c1cc(C)cc(O)c1C2=O"
-- reply 0.989

-- ask Complete the entry with normalized growth for "CC(=O)NS(=O)(=O)c1ccc(N)cc1"
-- reply 0.99

-- ask Complete the entry with normalized growth for C[N+]12CCC(CC1)C(OC(=O)C(O)(c1ccccc1)c1ccccc1)C2 (configuration not stated)
-- reply 0.987

-- ask Complete the entry with normalized growth for "CC(=O)CCCCn1c(=O)c2c(ncn2C)n(C)c1=O"
-- reply 1.01

-- ask Complete the entry with normalized growth for "Cn1c(=O)[nH]c2nc[nH]c2c1=O"
-- reply 0.997

-- ask Complete the entry with normalized growth for COC(=O)CC1C(C)(C)C(=O)C2CC3(O)C4=CC(=O)OC(c5ccoc5)C4(C)CCC3C1(C)C2=O (configuration not stated)
-- reply 0.992

-- ask Complete the entry with normalized growth for "NS(=O)(=O)c1cc2c(cc1Cl)NCNS2(=O)=O"
-- reply 0.994

-- ask Complete the entry with normalized growth for O=C1C(=O)c2ccccc2C(O)=C1C1CCC(c2ccc(Cl)cc2)CC1 (configuration not stated)
-- reply 1

-- ask Complete the entry with normalized growth for "Cc1cc(O)c2c(c1)C(=O)c1cccc(O)c1C2=O"
-- reply 1.01

-- ask Complete the entry with normalized growth for "COc1cc(O)ccc1C(C)=O"
-- reply 1.02

-- ask Complete the entry with normalized growth for COC(=O)C(O)[C@H]1C(C)(C)[C@@H](OC(C)=O)[C@@H]2CC3=C4CC(=O)O[C@@H](c5ccoc5)[C@]4(C)CCC3[C@@]1(C)C2=O (some centres not stated)
-- reply 1

-- ask Complete the entry with normalized growth for "CC(C)OC(=O)Nc1cccc(Cl)c1"
-- reply 0.973

-- ask Complete the entry with normalized growth for "Cn1c(=O)c2c(ncn2C)n(C)c1=O"
-- reply 1.01
